biological target: OCT2 (Homo sapiens); assay: Inhibition of OCT2-mediated ASP+ uptake (Kido et al., Giacomini group); details: read-out: IC50 (μM) (substrate ASP+); estimated from the inhibition at the single concentration 20 μM
Sequence (O15244 whole entry): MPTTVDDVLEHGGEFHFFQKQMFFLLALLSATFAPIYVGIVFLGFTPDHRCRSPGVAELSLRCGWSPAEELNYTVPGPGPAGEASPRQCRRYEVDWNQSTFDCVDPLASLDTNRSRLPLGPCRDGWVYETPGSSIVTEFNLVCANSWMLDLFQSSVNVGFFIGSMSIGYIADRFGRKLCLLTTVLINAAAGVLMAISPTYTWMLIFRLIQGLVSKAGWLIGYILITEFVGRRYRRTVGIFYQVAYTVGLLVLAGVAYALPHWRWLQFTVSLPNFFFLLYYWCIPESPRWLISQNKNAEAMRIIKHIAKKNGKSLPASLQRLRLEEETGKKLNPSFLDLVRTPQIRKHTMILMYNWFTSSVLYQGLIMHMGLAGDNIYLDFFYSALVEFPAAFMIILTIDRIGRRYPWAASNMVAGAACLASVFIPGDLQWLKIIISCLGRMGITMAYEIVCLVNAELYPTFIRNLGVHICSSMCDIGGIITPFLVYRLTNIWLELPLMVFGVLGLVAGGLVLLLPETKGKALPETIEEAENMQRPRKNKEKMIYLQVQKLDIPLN
reportedEndpoint: potency estimated from few doses (µM)
Answer in µM, number only, no unit symbol.

Tested on OCT2 (Homo sapiens): CC(C)[N+]1(C)[C@@H]2CC[C@H]1CC(OC(=O)C(CO)c1ccccc1)C2.[Br-] (stereo partly shown) [Ipratropium•Br] . Observed potency estimated from few doses: 0.81

* * *

target: MATE2K (Homo sapiens, UniProt Q86VL8); assay: Inhibition of MATE2K-mediated oxaliplatin transport in human serum or 4% BSA HBSS
Sequence (Q86VL8 1-566 isoform Q86VL8-3): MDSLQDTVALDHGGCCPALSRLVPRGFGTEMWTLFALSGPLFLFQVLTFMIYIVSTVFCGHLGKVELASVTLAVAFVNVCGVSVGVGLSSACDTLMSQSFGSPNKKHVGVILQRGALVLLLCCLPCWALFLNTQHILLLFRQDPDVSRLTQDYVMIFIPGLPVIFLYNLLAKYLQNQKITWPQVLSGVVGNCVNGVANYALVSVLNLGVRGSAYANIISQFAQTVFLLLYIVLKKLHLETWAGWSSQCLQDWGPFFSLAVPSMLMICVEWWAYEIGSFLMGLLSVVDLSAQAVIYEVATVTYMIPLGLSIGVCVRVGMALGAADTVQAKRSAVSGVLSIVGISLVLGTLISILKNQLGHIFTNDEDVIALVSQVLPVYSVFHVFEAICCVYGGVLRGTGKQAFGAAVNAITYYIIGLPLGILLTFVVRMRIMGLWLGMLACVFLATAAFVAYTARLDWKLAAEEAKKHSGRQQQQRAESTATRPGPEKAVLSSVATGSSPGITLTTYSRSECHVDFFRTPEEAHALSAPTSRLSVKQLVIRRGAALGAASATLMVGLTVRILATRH
reportedEndpoint: IC50 (µM)
Give the value, in units of µM, as a plain number.

Record summary for COc1cc(OC)c(C(=O)CCCN2CCCC2)c(OC)c1 [Buflomedil] : reported IC50 = 84
